System: NCI/ADR-RES ovarian
Assay: NCI-60 one-dose screen, 48 h (100 = growth as untreated, 0 = no growth, -100 = all killed)
Details: 10 µM unless noted
This is part of a sample that, as a whole, favours compounds with a hit. Of some 83,000 tested, about 20% had one in any assay.
measured_property: growth (%)

>>> reported_result("CCOC(=O)c1c(Nc2ccccc2)nn2c(N)c(C#N)c(-c3ccc(OC)cc3)nc12")
73.3
>>> reported_result("c1ccc2c(NCCCn3ccnc3)c3oc4ccccc4c3nc2c1")
2.5
>>> reported_result("Oc1c(Cl)cc(Cl)c2ccc(CN3CCCCC3)nc12")
19.3
>>> reported_result("Clc1ccc2oc3c(NCCCN4CCOCC4)c4ccccc4nc3c2c1")
29.2
>>> reported_result("O=C(c1ccc(Cl)cc1)C1[C@H](c2ccc(Cl)cc2)[C@@H](c2ccccc2)NC12C(=O)Nc1ccc(Br)cc12 (stereo not given in full)")
28.8

----------
System: OVCAR-5 ovarian
Experiment: NCI-60 one-dose screen, 48 h (100 = growth as untreated, 0 = no growth, -100 = all killed)
Settings: 10 µM unless noted
Compounds without any hit were thinned out: in the full panel of roughly 83,000, 20% have a hit.
measured_property: growth (%)

>>> reported_result("COC1CCN(Cc2ccc3c(NNC(=O)c4cnccn4)nc4cc(F)ccc4n23)C1 (stereo not given)")
49.9
>>> reported_result("Fc1ccc(-c2cc3nc(C(Cl)Cl)nc(-c4ccc(Cl)cc4)n3n2)cc1")
-4.91
>>> reported_result("N/C(=N\\c1nc2c(Br)cccc2s1)C(Br)Br")
8.49
>>> reported_result("O=C(N/N=C/c1ccco1)c1[nH]c2ccc(Br)cc2c1-c1ccccc1")
36.7
>>> reported_result("CC(C)(C)OC(=O)N1C(=O)c2c(c3c4ccccc4[nH]c3c3ccc4ccccc4c23)C1=O")
63.8
>>> reported_result("CCN1CCN(/C(=N\\c2sc(-c3ccccc3)nc2-c2ccccc2)c2ccccc2)CC1")
91.8
>>> reported_result("OC1CCc2c(-c3ccc4ncnc(N5CCc6cc(F)c(Cl)cc65)c4c3)cncc21 (stereo not given)")
46.6
>>> reported_result("CCOC(=O)c1c(Nc2ccccc2)nn2c(N)c(C#N)c(-c3ccc(Cl)cc3)nc12")
78.5
>>> reported_result("O=C1Nc2cc(Cl)ccc2/C1=C\\c1ccc(OCc2ccc([N+](=O)[O-])cc2)cc1")
93.3
>>> reported_result("CN(C)c1ccc(/C=c2\\sc3nc4ccccc4n3c2=O)cc1")
102

----------
# growth per entry
System: 786-0 renal
Assay: NCI-60 one-dose screen, 48 h (100 = growth as untreated, 0 = no growth, -100 = all killed)
Settings: 10 µM unless noted
The panel holds about 83,000 compounds, 20% with a hit somewhere; the sample as a whole holds those more often. The source made the active and inactive calls. Rule for the calls: active = growth percent below 10; inactive = the rest.
measured_property: growth

>>> reported_result("COc1ccc(NC(=O)c2sc3nc(-c4cnccn4)cc(-c4cccs4)c3c2N)cc1")
"62.7% (inactive)"
>>> reported_result("CC(C)(C)Nc1nc2c(OCCc3ccccc3)cccn2c1-c1ccccc1Cl")
"6.01% (active)"
>>> reported_result("O=C(CSc1nccc(=O)[nH]1)Nc1ccc(-c2nc3ccccc3[nH]2)cc1")
"101% (inactive)"
>>> reported_result("Cc1ccc(CNS(=O)(=O)/N=C2\\NC(=O)NC2=C(Cl)Cl)cc1")
"36.6% (inactive)"
>>> reported_result("Fc1ccc(-c2cc3nc(C(Cl)Cl)nc(-c4ccccc4)n3n2)cc1")
"5.34% (active)"
